Assay: Metabolic stability at a concentration of 100 uM in rat liver microsomes after 1 hr incubation
Format: ADME
value kind: remaining at 1 h, 100 µM (%)

C=CCN1C[C@H](C)N([C@H](c2ccc(C(=O)N(CC)CC)cc2)c2cccc(O)c2)C[C@H]1C: 59
CCN(CC)C(=O)c1ccc(C(c2cccc3c2OC(C)(C)C3)N2CCNCC2)cc1 (centres undefined): 93
CCN(CC)C(=O)c1ccc(C(c2cccc3cccnc23)N2CCNCC2)cc1 (centres undefined): 83
CCN(CC)C(=O)c1ccc(C(c2ccccc2)N2CCNCC2)cc1 (centres undefined): 89

###

Biological target: Kappa-type opioid receptor (Homo sapiens)
Sequence (P41145 whole entry): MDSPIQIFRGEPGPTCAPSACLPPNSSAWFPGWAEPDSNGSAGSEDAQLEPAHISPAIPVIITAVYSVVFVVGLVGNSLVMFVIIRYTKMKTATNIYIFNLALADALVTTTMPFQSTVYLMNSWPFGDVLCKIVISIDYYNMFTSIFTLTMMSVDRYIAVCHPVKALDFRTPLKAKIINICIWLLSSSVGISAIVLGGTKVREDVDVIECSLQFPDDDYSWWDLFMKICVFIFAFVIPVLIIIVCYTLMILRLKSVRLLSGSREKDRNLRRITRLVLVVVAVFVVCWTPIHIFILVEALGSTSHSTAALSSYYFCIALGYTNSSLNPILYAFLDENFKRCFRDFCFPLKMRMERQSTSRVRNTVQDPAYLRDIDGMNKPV
value kind: IC50

CCN(CC)C(=O)c1ccc(C(c2ccccc2)C2CCNCC2)cc1 (stereo not drawn): > 10 µM
CCN(CC)C(=O)c1ccc(C(c2ccccc2)N2CCN(CC3CC3)CC2)cc1 (stereo not drawn): > 5.6 µM
CCN(CC)C(=O)c1ccc(C(c2cccc(OC)c2)N2CCNCC2)cc1 (stereo not drawn): > 10 µM
C=CCN1C[C@H](C)N([C@H](c2ccc(C(=O)N(CC)CC)cc2)c2cccc(O)c2)C[C@H]1C: 0.02 µM
CCN(CC)C(=O)c1ccc(C(c2cccc(OC)c2)N2CC(C)NCC2(C)C)cc1 (stereo not drawn): > 10 µM
CCN(CC)C(=O)c1ccc(C(c2ccc(OC)cc2)N2CCNCC2)cc1 (stereo not drawn): > 10 µM
CCN(CC)C(=O)c1ccc(C(c2cccc(F)c2)N2CCNCC2)cc1 (stereo not drawn): > 10 µM
CCN(CC)C(=O)c1ccc(C(c2ccc(Cl)cc2)N2CCNCC2)cc1 (stereo not drawn): > 10 µM

###

Target: Delta-type opioid receptor (Homo sapiens)
Experiment: Agonist potency was measured using GTP gamma-[35S] binding assay
pEC50: −log10 of the molar value.
Listed here: items and their measured pEC50.
value kind: pEC50

CCN(CC)C(=O)c1ccc(C(c2cccc3cccnc23)N2CCNCC2)cc1 (stereo not given): 8.44
CCN(CC)C(=O)c1ccc(C(c2cccc(OC)c2)N2CC(C)NCC2(C)C)cc1 (stereo not given): 6.56
C=CCN1CCN(C(c2ccccc2)c2ccc(C(=O)N(CC)CC)cc2)CC1 (stereo not given): 7.48
CCN(CC)S(=O)(=O)c1ccc(C(c2ccccc2)N2CCNCC2)cc1 (stereo not given): 6.20
CCN(CC)C(=O)c1ccc(C(c2ccc(C)cc2)N2CCNCC2)cc1 (stereo not given): 7.11
CCN(CC)C(=O)c1ccc(C(c2cccc3ccccc23)N2CCNCC2)cc1 (stereo not given): 7.74
CCN(CC)C(=O)c1ccc(C(c2ccc3cc[nH]c3c2)N2CCNCC2)cc1 (stereo not given): 7.35
CCN(CC)C(=O)c1ccc(C(c2cccc3cnccc23)N2CCNCC2)cc1 (stereo not given): 7.26
CCN(CC)C(=O)c1ccc(C(c2ccc3cccnc3c2)N2CCNCC2)cc1 (stereo not given): 8.16
CCN(CC)C(=O)c1ccc(C(c2ccc(OC)cc2)N2CCNCC2)cc1 (stereo not given): 6.73

###

Target: Delta-type opioid receptor (Homo sapiens, UniProt P41143)
Sequence (P41143 whole entry): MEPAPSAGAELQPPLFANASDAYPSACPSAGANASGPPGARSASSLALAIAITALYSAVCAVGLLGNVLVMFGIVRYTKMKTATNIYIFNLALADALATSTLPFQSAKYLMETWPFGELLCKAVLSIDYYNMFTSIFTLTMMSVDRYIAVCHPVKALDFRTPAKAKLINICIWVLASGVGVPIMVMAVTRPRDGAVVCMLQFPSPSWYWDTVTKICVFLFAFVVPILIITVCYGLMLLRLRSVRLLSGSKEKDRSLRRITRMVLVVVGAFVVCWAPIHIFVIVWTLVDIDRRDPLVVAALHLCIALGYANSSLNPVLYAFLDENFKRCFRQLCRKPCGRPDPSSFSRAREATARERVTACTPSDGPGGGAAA
Test: Agonist potency was measured using GTP gamma-[35S] binding assay
Lab note: anything with EC50 below 0.1 µM is marked y; values at 0.1 µM or higher are marked n.

CCN(CC)C(=O)c1ccc(C(c2cccc(F)c2)N2CCNCC2)cc1 (centres undefined): y
CCN(CC)C(=O)c1ccc(C(c2cccc3c2OC(C)(C)C3)N2CCNCC2)cc1 (centres undefined): y
CCN(CC)C(=O)c1ccc(C(c2ccccc2)N2CCN(C)CC2)cc1 (centres undefined): n
C=CCN1C[C@H](C)N([C@H](c2ccc(C(=O)N(CC)CC)cc2)c2cccc(O)c2)C[C@H]1C: y
CCN(CC)C(=O)c1ccc(C(c2ccc(Cl)cc2)N2CCNCC2)cc1 (centres undefined): n
CCN(CC)C(=O)c1ccc(C(c2cccc(OC)c2)N2CCNCC2)cc1 (centres undefined): y
CCN(CC)C(=O)c1ccc(C(c2ccccc2)N2CCCNCC2)cc1 (centres undefined): n
CCN(CC)C(=O)c1ccc(C(c2ccc3ccccc3c2)N2CCNCC2)cc1 (centres undefined): y
CCN(CC)C(=O)c1ccc(C(c2cccc(OC)c2)N2CC(C)(C)NCC2C)cc1 (centres undefined): y

###

Molecular target: Mu-type opioid receptor (Homo sapiens)
Sequence (P35372 whole entry): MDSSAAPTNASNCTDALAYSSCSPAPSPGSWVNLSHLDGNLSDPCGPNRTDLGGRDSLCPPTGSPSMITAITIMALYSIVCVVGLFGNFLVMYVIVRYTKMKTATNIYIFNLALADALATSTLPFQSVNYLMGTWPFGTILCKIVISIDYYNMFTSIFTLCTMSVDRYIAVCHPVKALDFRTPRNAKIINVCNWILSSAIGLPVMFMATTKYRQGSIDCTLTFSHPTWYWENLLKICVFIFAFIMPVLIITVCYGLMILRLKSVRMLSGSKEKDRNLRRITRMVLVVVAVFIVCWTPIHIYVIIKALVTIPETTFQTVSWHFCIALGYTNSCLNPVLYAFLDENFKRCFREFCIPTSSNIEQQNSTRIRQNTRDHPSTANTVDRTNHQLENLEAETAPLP
value kind: log10(IC50) (log10 of the value in nM)

CCN(CC)C(=O)c1ccc(C(c2cccc(F)c2)N2CCNCC2)cc1 (stereo not drawn): 3.75
CCN(CC)C(=O)c1ccc(C(c2ccc3cccnc3c2)N2CCNCC2)cc1 (stereo not drawn): 3.01
CCN(CC)C(=O)c1ccc(C(c2cccc3c2OC(C)(C)C3)N2CCNCC2)cc1 (stereo not drawn): 2.89
CCN(CC)C(=O)c1ccc(C(c2ccc(Cl)cc2)N2CCNCC2)cc1 (stereo not drawn): 3.73
CCN(CC)C(=O)c1ccc(C(C2CCCCC2)N2CCNCC2)cc1 (stereo not drawn): 2.27
CCCCN1CCN(C(c2ccccc2)c2ccc(C(=O)N(CC)CC)cc2)CC1 (stereo not drawn): 2.69
CCN(CC)C(=O)c1ccc(C(c2ccc3cc[nH]c3c2)N2CCNCC2)cc1 (stereo not drawn): 3.35
CCN(CC)C(=O)c1ccc(C(c2cccc3cccnc23)N2CCNCC2)cc1 (stereo not drawn): 2.80
CCN(CC)C(=O)c1ccc(C(c2ccc(OC)cc2)N2CCNCC2)cc1 (stereo not drawn): 3.66
CCN(CC)C(=O)c1ccc(C(c2cccc3ccccc23)N2CCNCC2)cc1 (stereo not drawn): 2.89
C=CCN1CCN(C(c2ccccc2)c2ccc(C(=O)N(CC)CC)cc2)CC1 (stereo not drawn): 3.70
CCN(CC)C(=O)c1ccc(C(c2ccccc2)N2CCN(CC3CC3)CC2)cc1 (stereo not drawn): 3.38
CCN(CC)C(=O)c1ccc(C(c2ccccc2)N2CCCNCC2)cc1 (stereo not drawn): 3.36
CCN(CC)C(=O)c1ccc(C(c2ccc3ccccc3c2)N2CCNCC2)cc1 (stereo not drawn): 3.43
CCN(CC)C(=O)c1ccc(C(c2cccc(OC)c2)N2CC(C)NCC2(C)C)cc1 (stereo not drawn): 2.45
CCN(CC)C(=O)c1ccc(C(c2cccc(OC)c2)N2CC(C)(C)NCC2C)cc1 (stereo not drawn): 2.79
C=CCN1C[C@H](C)N([C@H](c2ccc(C(=O)N(CC)CC)cc2)c2cccc(O)c2)C[C@H]1C: 0.32
CCN(CC)C(=O)c1ccc(C(c2cccc(OC)c2)N2CCNCC2)cc1 (stereo not drawn): 3.72
CCN(CC)C(=O)c1ccc(C(c2cccc3cnccc23)N2CCNCC2)cc1 (stereo not drawn): 3.17
CCN(CC)C(=O)c1ccc(C(c2ccccc2)N(C)CCNC)cc1 (stereo not drawn): 3.84
CCN(CC)C(=O)c1ccc(C(c2ccc(C)cc2)N2CCNCC2)cc1 (stereo not drawn): 3.85

###

Dear all, this message contains IC50 results, target or system Kappa-type opioid receptor (Homo sapiens, UniProt P41145).
value kind: IC50 (µM)

CCN(CC)C(=O)c1ccc(C(c2cccc3ccccc23)N2CCNCC2)cc1 (stereo not given): 4.91
CCN(CC)C(=O)c1ccc(C(c2ccccc2)N2CCCNCC2)cc1 (stereo not given): 4.53
C=CCN1CCN(C(c2ccccc2)c2ccc(C(=O)N(CC)CC)cc2)CC1 (stereo not given): 7.57
CCN(CC)C(=O)c1ccc(C(c2ccc3cccnc3c2)N2CCNCC2)cc1 (stereo not given): 3.16

###

Dear all, this message contains IC50 results, target or system Kappa-type opioid receptor (Homo sapiens, UniProt P41145).
value kind: IC50 (µM)

CCN(CC)C(=O)c1ccc(C(c2ccccc2)N2CCN(C)CC2)cc1 (stereo not given): 6.97
CCN(CC)C(=O)c1ccc(C(c2cccc3cccnc23)N2CCNCC2)cc1 (stereo not given): 7.02
CCN(CC)C(=O)c1ccc(C(c2ccc3cc[nH]c3c2)N2CCNCC2)cc1 (stereo not given): 3.97
CCN(CC)C(=O)c1ccc(C(C2CCCCC2)N2CCNCC2)cc1 (stereo not given): 0.724

###

Molecular target: Delta-type opioid receptor (Homo sapiens)
Experiment: Binding affinity against human opioid receptor delta 1 using [125I]-[D-Ala2]-deltorphin II as radioligand
value kind: IC50 (µM)

CCN(CC)C(=O)c1ccc(C(c2cccc(OC)c2)N2CC(C)(C)NCC2C)cc1 (centres undefined): 0.00844
CCN(CC)C(=O)c1ccc(C(c2ccc3ccccc3c2)N2CCNCC2)cc1 (centres undefined): 0.00763
CCC(CC)C(=O)c1ccc(C(c2ccccc2)N2CCNCC2)cc1 (centres undefined): 0.1
CC(C)(O)c1ccc(C(c2ccccc2)N2CCNCC2)cc1 (centres undefined): 0.406
CCN(CC)C(=O)c1ccc(C(C2CCCCC2)N2CCNCC2)cc1 (centres undefined): 0.0984
CCN(CC)C(=O)c1ccc(C(c2ccccc2)N2CCN(CC3CC3)CC2)cc1 (centres undefined): 0.0353
CCN(CC)C(=O)c1ccc(C(c2cccc3cccnc23)N2CCNCC2)cc1 (centres undefined): 0.00051
CCN(CC)C(=O)c1ccc(C(c2cccc3ccccc23)N2CCNCC2)cc1 (centres undefined): 0.00236
CCCCN1CCN(C(c2ccccc2)c2ccc(C(=O)N(CC)CC)cc2)CC1 (centres undefined): 0.0286
CCN(CC)C(=O)c1ccc(C(c2cccc(OC)c2)N2CC(C)NCC2(C)C)cc1 (centres undefined): 0.0533
CCN(CC)C(=O)c1ccc(C(c2ccc(Cl)cc2)N2CCNCC2)cc1 (centres undefined): 0.0193
c1ccc(C(c2ccc(-c3nnn[nH]3)cc2)N2CCNCC2)cc1 (centres undefined): 0.25
O=C(O)c1ccc(C(c2ccccc2)N2CCNCC2)cc1 (centres undefined): 0.41
CCN(CC)C(=O)c1ccc(C(c2cccc(F)c2)N2CCNCC2)cc1 (centres undefined): 0.0045
CCN(CC)Cc1ccc(C(c2ccccc2)N2CCNCC2)cc1 (centres undefined): 0.555
CCN(CC)C(=O)c1ccc(C(c2ccccc2)N2CCCCC2)cc1 (centres undefined): 2.23
CN(C)C(=O)c1ccc(C(c2ccccc2)N2CCNCC2)cc1 (centres undefined): 0.0604
CCN(CC)C(=O)c1ccc(C(c2ccccc2)N2CCN(C)CC2)cc1 (centres undefined): 0.0404
CCNC(=O)c1ccc(C(c2ccccc2)N2CCNCC2)cc1 (centres undefined): 0.175
CCN(CC)C(=O)c1ccc(C(c2cccc3c2OC(C)(C)C3)N2CCNCC2)cc1 (centres undefined): 0.00115
CCN(CC)C(=O)c1ccc(C(c2ccc(OC)cc2)N2CCNCC2)cc1 (centres undefined): 0.00813
C=CCN1CCN(C(c2ccccc2)c2ccc(C(=O)N(CC)CC)cc2)CC1 (centres undefined): 0.0159
CCN(CC)C(=O)c1ccc(C(c2ccc3ncccc3c2)N2CCNCC2)cc1 (centres undefined): 0.0616
NC(=O)c1ccc(C(c2ccccc2)N2CCNCC2)cc1 (centres undefined): 0.509
CCN(CC)C(=O)c1ccc(C(c2ccc(C)cc2)N2CCNCC2)cc1 (centres undefined): 0.00842
CCN(CC)C(=O)c1ccc(C(c2ccc3cccnc3c2)N2CCNCC2)cc1 (centres undefined): 0.0011
CCN(CC)C(=O)c1ccc(C(c2ccnc3ccccc23)N2CCNCC2)cc1 (centres undefined): 0.132
CCN(CC)S(=O)(=O)c1ccc(C(c2ccccc2)N2CCNCC2)cc1 (centres undefined): 0.0379
CCN(CC)C(=O)c1ccc(C(c2ccccc2)N(C)CCNC)cc1 (centres undefined): 0.0916
CCN(CC)C(=O)c1ccc(C(c2ccccc2)N2CCCNCC2)cc1 (centres undefined): 0.0196
N#Cc1ccc(C(c2ccccc2)N2CCNCC2)cc1 (centres undefined): 1.29
CN1CCc2cc(-c3ccc(C(c4ccccc4)N4CCNCC4)cc3)ccc2C1=O (centres undefined): 1.65
CCN(CC)C(=O)c1ccc(C(c2cccc(OC)c2)N2CCNCC2)cc1 (centres undefined): 0.0248
CC(=O)c1ccc(C(c2ccccc2)N2CCNCC2)cc1 (centres undefined): 1.05
CCN(CC)C(=O)c1ccc(C(c2ccc3cc[nH]c3c2)N2CCNCC2)cc1 (centres undefined): 0.00681
CCN(CC)C(=O)c1ccc(C(c2cccc3cnccc23)N2CCNCC2)cc1 (centres undefined): 0.00411
COC(=O)c1ccc(C(c2ccccc2)N2CCNCC2)cc1 (centres undefined): 0.307

Source of measurements: ChEMBL document CHEMBL1133468
